Test system: EKVX
Assay: relative viability (nuclei count vs DMSO), 5 days (fraction); higher = more cells survive
Settings: first compound 0.02 µM
MEASURE_NAME: relative viability
Lab note: record the figure alone, no unit after it.

Record excerpt, results attached:
MOLECULE | ENDPOINT_VALUE
CC(=O)O[C@@]12CO[C@@H]1C[C@H](O)[C@@]1(C)C(=O)[C@H](O)C3=C(C)[C@@H](OC(=O)[C@H](O)[C@@H](NC(=O)OC(C)(C)C)c4ccccc4)C[C@@](O)([C@@H](OC(=O)c4ccccc4)[C@H]21)C3(C)C [Docetaxel] + Nc1ncn([C@H]2C[C@H](O)[C@@H](CO)O2)c(=O)n1 [Decitabine] (partner 2 µM) | 0.134
CC(=O)O[C@@]12CO[C@@H]1C[C@H](O)[C@@]1(C)C(=O)[C@H](O)C3=C(C)[C@@H](OC(=O)[C@H](O)[C@@H](NC(=O)OC(C)(C)C)c4ccccc4)C[C@@](O)([C@@H](OC(=O)c4ccccc4)[C@H]21)C3(C)C [Docetaxel] + Nc1nc2[nH]cc(CCc3ccc(C(=O)N[C@@H](CCC(=O)O)C(=O)O)cc3)c2c(=O)[nH]1 [Pemetrexed] (partner 0.2 µM) | 0.193
CC(=O)O[C@@]12CO[C@@H]1C[C@H](O)[C@@]1(C)C(=O)[C@H](O)C3=C(C)[C@@H](OC(=O)[C@H](O)[C@@H](NC(=O)OC(C)(C)C)c4ccccc4)C[C@@](O)([C@@H](OC(=O)c4ccccc4)[C@H]21)C3(C)C [Docetaxel] + CC1(C)CCC(c2ccc(Cl)cc2)=C(CN2CCN(c3ccc(C(=O)NS(=O)(=O)c4ccc(N[C@H](CCN5CCOCC5)CSc5ccccc5)c(S(=O)(=O)C(F)(F)F)c4)cc3)CC2)C1 [Navitoclax] (partner 0.5 µM) | 0.123
CC(=O)O[C@@]12CO[C@@H]1C[C@H](O)[C@@]1(C)C(=O)[C@H](O)C3=C(C)[C@@H](OC(=O)[C@H](O)[C@@H](NC(=O)OC(C)(C)C)c4ccccc4)C[C@@](O)([C@@H](OC(=O)c4ccccc4)[C@H]21)C3(C)C [Docetaxel] + Cc1nc(NC(=O)N2CCC[C@H]2C(N)=O)sc1-c1ccnc(C(C)(C)C(F)(F)F)c1 [Alpelisib] (partner 2 µM) | 0.146

Record request: relative viability value, item CC(=O)O[C@@]12CO[C@@H]1C[C@H](O)[C@@]1(C)C(=O)[C@H](O)C3=C(C)[C@@H](OC(=O)[C@H](O)[C@@H](NC(=O)OC(C)(C)C)c4ccccc4)C[C@@](O)([C@@H](OC(=O)c4ccccc4)[C@H]21)C3(C)C [Docetaxel] + C[C@]1(O)C[C@@H](c2nc(-c3ccc4ccc(-c5ccccc5)nc4c3)c3c(N)nccn32)C1 [Linsitinib] (partner 1 µM)
0.115

Values from the supplement of paper PMC10307832
